Experiment: Mouse plasma and brain pharmacokinetics, IP administration
Type: in vivo
Conditions: male, C57BL/6, mouse, brain; 10 mg/kg IP; read-out: Tmax brain
For each entry below, report its Tmax value.

Summary for this compound, O=C(O)CC(F)(F)C(=O)N1N=C(c2c(-c3ccc(Cl)cc3)c3ccccc3[nH]c2=O)CC1c1ccc(Cl)cc1 (centres unmarked) : Tmax is 0.5 h

Summary for this compound, NC(=O)CC(F)(F)C(=O)N1N=C(c2c(-c3ccc(Cl)cc3)c3ccccc3[nH]c2=O)CC1c1ccc(Cl)cc1 (centres unmarked) : Tmax is 4 h

###

Assay: Mouse plasma and brain pharmacokinetics, IP administration
Type: in vivo
Conditions: male, C57BL/6, mouse, brain, intraperitoneal, 10 mg/kg, 10 mg/kg IP; 2 h; read-out: brain calculated concentration, individual (Group 1-3)
propertyMeasured: concentration at 2 h (ng/g)
A number alone suffices; assume ng/g.

Summary for this molecule, O=C(O)CC(F)(F)C(=O)N1N=C(c2c(-c3ccc(Cl)cc3)c3ccccc3[nH]c2=O)CC1c1ccc(Cl)cc1 (stereo not shown) : concentration at 2 h is 15.9

###

Assay: Mouse plasma and brain pharmacokinetics, IP administration
Format: in vivo
Conditions: male, C57BL/6, mouse, brain, intraperitoneal, 10 mg/kg, 10 mg/kg IP; 1 h; read-out: brain calculated concentration, Mean
propertyMeasured: concentration at 1 h (ng/g)
A number alone suffices; assume ng/g.

Summary for this molecule, O=C(O)CC(F)(F)C(=O)N1N=C(c2c(-c3ccc(Cl)cc3)c3ccccc3[nH]c2=O)CC1c1ccc(Cl)cc1 (stereo not shown) [2i] : concentration at 1 h is 14.6

###

Assay: Mouse plasma and brain pharmacokinetics, IP administration
Format: in vivo
Conditions: male, C57BL/6, mouse, brain; 10 mg/kg IP; read-out: AUC0.25–4 h brain
propertyMeasured: AUC (ng·h/mL)
A number alone suffices; assume ng·h/mL.

Summary for this molecule, NC(=O)CC(F)(F)C(=O)N1N=C(c2c(-c3ccc(Cl)cc3)c3ccccc3[nH]c2=O)CC1c1ccc(Cl)cc1 (centres unmarked) : AUC is 41

Summary for this molecule, O=C(O)CC(F)(F)C(=O)N1N=C(c2c(-c3ccc(Cl)cc3)c3ccccc3[nH]c2=O)CC1c1ccc(Cl)cc1 (centres unmarked) : AUC is 64

###

Molecular target: GluN1/GluN2B (Rattus norvegicus, UniProt P35439+Q00960)
Construct: GluN2B (NM_012574.1), GluN2C (NM_012575.3), and GluN2D (NM_022797.2) were provided by
Sequence (Q00960 27-1482, other chains not shown): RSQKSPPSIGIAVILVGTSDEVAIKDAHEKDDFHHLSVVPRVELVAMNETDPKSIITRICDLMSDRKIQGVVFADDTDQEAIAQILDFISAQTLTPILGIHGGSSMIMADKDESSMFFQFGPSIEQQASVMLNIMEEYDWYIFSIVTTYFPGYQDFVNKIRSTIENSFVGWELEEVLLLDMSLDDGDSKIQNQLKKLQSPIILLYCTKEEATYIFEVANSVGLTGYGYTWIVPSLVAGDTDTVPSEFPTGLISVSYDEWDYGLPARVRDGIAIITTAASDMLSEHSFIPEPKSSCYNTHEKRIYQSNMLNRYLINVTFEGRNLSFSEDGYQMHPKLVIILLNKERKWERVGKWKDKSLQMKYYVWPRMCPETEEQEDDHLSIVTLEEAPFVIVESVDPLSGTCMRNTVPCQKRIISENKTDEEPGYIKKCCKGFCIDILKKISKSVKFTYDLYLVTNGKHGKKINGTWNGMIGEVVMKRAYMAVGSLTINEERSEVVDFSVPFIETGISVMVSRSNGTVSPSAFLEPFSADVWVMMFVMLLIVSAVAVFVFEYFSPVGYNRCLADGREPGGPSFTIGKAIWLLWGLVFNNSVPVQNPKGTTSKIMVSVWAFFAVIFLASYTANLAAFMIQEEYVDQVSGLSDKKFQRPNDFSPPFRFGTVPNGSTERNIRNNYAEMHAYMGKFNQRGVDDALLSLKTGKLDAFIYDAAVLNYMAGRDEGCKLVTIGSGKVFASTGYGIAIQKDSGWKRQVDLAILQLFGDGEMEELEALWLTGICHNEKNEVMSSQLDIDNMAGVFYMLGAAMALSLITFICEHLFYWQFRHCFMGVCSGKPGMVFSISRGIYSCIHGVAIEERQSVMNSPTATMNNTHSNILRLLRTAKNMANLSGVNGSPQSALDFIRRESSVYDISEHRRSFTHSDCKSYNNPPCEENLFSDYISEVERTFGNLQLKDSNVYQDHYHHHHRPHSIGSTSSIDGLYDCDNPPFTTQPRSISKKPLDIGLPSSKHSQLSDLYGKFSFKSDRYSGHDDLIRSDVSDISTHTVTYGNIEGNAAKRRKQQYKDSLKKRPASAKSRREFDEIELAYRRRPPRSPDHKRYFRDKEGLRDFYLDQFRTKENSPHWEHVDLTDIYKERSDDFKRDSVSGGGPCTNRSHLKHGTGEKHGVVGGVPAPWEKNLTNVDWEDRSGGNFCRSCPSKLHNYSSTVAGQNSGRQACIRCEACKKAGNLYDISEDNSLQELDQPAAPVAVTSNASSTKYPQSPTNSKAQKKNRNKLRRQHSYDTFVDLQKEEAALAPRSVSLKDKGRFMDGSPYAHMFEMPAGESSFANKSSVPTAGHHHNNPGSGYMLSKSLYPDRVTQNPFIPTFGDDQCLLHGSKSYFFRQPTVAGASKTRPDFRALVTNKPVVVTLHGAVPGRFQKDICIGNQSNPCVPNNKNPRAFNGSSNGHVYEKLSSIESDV
Assay: Two-electrode voltage-clamp recordings, Xenopus laevis oocytes, GluN1/GluN2B
Conditions: 100 μM glutamate, 30 μM glycine; read-out: IC50 GluN2B [95% CI]
propertyMeasured: IC50 (µM)
A number alone suffices; assume µM.

GluN1/GluN2B (Rattus norvegicus, UniProt P35439+Q00960) data for O=C(CCc1nnn[nH]1)N1N=C(c2c(-c3ccc(Cl)cc3)c3ccccc3[nH]c2=O)CC1c1ccc(Cl)cc1 (stereo not shown) ; its IC50: 29

GluN1/GluN2B (Rattus norvegicus, UniProt P35439+Q00960) data for N[C@@H](CCC(=O)N1N=C(c2c(-c3ccc(Cl)cc3)c3ccccc3[nH]c2=O)CC1c1ccc(Cl)cc1)C(=O)O (stereo partly shown) ; its IC50: 21

GluN1/GluN2B (Rattus norvegicus, UniProt P35439+Q00960) data for O=C(O)CC(F)(F)C(=O)N1N=C(c2c(-c3ccc(Cl)cc3)c3ccccc3[nH]c2=O)C[C@H]1c1ccc(Cl)cc1 [(S)-(−)-2i] ; its IC50: 16

GluN1/GluN2B (Rattus norvegicus, UniProt P35439+Q00960) data for CNC(=O)CC(F)(F)C(=O)N1N=C(c2c(-c3ccc(Cl)cc3)c3ccccc3[nH]c2=O)CC1c1ccc(Cl)cc1 (stereo not shown) ; its IC50: 20

GluN1/GluN2B (Rattus norvegicus, UniProt P35439+Q00960) data for O=C(O)CC(F)(F)C(=O)N1N=C(c2c(-c3ccc(Cl)cc3)c3ccccc3[nH]c2=O)CC1c1ccc(Cl)cc1 (stereo not shown) ; its IC50: 16

GluN1/GluN2B (Rattus norvegicus, UniProt P35439+Q00960) data for NC(=O)CC(F)(F)C(=O)N1N=C(c2c(-c3ccc(Cl)cc3)c3ccccc3[nH]c2=O)CC1c1ccc(Cl)cc1 (stereo not shown) ; its IC50: 3.1

GluN1/GluN2B (Rattus norvegicus, UniProt P35439+Q00960) data for O=C(O)CCCC(=O)N1N=C(c2c(-c3ccc(Cl)cc3)c3ccccc3[nH]c2=O)CC1c1ccc(Cl)cc1 (stereo not shown) ; its IC50: 37

###

Test: Mouse plasma and brain pharmacokinetics, IP administration
Assay type: in vivo
Settings: male, C57BL/6, mouse, brain, intraperitoneal, 10 mg/kg, 10 mg/kg IP; 4 h; read-out: brain calculated concentration, individual (Group 1-3)
propertyMeasured: concentration at 4 h (ng/g)
A number alone suffices; assume ng/g.

Summary for this molecule, O=C(O)CC(F)(F)C(=O)N1N=C(c2c(-c3ccc(Cl)cc3)c3ccccc3[nH]c2=O)CC1c1ccc(Cl)cc1 (stereo not shown) : concentration at 4 h is 9.5

###

Experiment: Brain homogenate tissue binding and stability (RED device)
Format: in vitro ADME, mouse
Settings: C57BL/6, mouse, brain homogenate (4 times diluted), pH 7.4; starting concentration 5 μM; 4 h
Description: Carbamazepine (Apin Chemicals) served as a positive control for brain tissue binding. Test compounds and the positive control were initially dissolved in DMSO to make 1 mM stock solutions. […] Prodrug metabolism and 2i concentrations were determined by fit-for-purpose LC-MS/MS methods on a nine-point calibration curve ranging from 0.12 to 7.5 μM.
For each entry below, report its remaining at 4 h, 5 µM value.
A number alone suffices; assume %.

Summary for this compound, CNC(=O)CC(F)(F)C(=O)N1N=C(c2c(-c3ccc(Cl)cc3)c3ccccc3[nH]c2=O)CC1c1ccc(Cl)cc1 (stereo not shown) : remaining at 4 h, 5 µM is 33

Summary for this compound, NC(=O)CC(F)(F)C(=O)N1N=C(c2c(-c3ccc(Cl)cc3)c3ccccc3[nH]c2=O)CC1c1ccc(Cl)cc1 (stereo not shown) : remaining at 4 h, 5 µM is 44

Summary for this compound, O=C(O)CC(F)(F)C(=O)N1N=C(c2c(-c3ccc(Cl)cc3)c3ccccc3[nH]c2=O)CC1c1ccc(Cl)cc1 (stereo not shown) : remaining at 4 h, 5 µM is 105

Summary for this compound, CCOC(=O)CC(F)(F)C(=O)N1N=C(c2c(-c3ccc(Cl)cc3)c3ccccc3[nH]c2=O)CC1c1ccc(Cl)cc1 (stereo not shown) : remaining at 4 h, 5 µM is 43

###

Assay: Mouse plasma and brain pharmacokinetics, IP administration
Assay type: in vivo
Conditions: male, C57BL/6, mouse, brain/plasma, ip, 10 mg/kg, 10 mg/kg IP; 0.25 h; read-out: Brain/plasma Ratio, individual (Group 1-3)
Description: IACUC-approved protocols and animal welfare regulations outlined in the “Guide for the Care and Use of Laboratory Animals” were both followed during the pharmacokinetic evaluation of all compounds. In vivo analysis was performed by Pharmaron (IP administration, Irvine, CA) and Sai Life (IV administration, Hinjewadi Pune, Pune, India). A group (n = 15) of fed, male C57BL/6 mice ∼6 to 8 weeks of age was injected IP with 10 mg/kg (1 mg/mL) of drug using 50% PEG400 in water as a vehicle. […]
propertyMeasured: Kp at 0.25 h
Response field accepts a number only; no unit should be typed.

Summary for this compound, O=C(O)CC(F)(F)C(=O)N1N=C(c2c(-c3ccc(Cl)cc3)c3ccccc3[nH]c2=O)CC1c1ccc(Cl)cc1 (stereo not shown) : Kp at 0.25 h is 0.01

###

Biological target: GluN1/GluN2D (Rattus norvegicus, UniProt P35439+Q62645)
Sequence (Q62645 28-1323, other chains not shown): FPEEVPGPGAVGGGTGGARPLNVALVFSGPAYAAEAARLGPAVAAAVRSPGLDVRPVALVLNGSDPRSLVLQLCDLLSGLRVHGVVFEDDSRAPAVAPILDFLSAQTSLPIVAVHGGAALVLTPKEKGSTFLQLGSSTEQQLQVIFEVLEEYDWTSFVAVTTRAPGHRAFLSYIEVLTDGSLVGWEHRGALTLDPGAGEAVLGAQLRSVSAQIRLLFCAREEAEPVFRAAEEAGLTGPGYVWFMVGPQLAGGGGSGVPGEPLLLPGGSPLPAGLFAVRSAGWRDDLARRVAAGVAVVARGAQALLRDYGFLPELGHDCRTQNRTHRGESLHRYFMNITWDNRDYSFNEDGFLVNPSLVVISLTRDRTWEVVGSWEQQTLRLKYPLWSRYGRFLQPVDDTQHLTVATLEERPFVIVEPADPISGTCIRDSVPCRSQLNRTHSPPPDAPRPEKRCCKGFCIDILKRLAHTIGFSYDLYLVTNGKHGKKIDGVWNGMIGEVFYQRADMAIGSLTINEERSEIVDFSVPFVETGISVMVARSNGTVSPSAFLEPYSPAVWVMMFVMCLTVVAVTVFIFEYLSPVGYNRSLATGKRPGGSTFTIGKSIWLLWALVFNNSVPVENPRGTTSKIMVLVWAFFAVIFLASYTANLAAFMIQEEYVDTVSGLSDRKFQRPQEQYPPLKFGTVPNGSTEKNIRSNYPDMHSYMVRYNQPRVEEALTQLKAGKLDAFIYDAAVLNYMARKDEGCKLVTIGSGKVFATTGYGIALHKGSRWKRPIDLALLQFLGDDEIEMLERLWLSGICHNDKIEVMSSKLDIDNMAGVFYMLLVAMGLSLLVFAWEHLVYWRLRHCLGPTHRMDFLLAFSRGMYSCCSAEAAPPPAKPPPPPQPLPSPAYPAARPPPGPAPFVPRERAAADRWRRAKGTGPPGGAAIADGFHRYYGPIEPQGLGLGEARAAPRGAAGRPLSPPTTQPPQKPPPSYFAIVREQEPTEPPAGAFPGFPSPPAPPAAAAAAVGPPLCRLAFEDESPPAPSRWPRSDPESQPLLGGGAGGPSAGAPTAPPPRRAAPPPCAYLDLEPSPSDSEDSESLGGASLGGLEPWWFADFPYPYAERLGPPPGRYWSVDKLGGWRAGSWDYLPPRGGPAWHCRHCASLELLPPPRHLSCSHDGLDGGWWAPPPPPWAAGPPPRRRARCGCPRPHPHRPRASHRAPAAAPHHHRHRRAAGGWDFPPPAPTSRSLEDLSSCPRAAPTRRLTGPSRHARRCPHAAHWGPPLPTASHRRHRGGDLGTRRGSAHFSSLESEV
Experiment: Whole-cell voltage-clamp recordings, HEK cells, GluN1/GluN2D (agonist dependence)
Format: cell-based
Details: peak current response to glutamate, inhibitor preapplied; read-out: IC50 peak (95% CI)
propertyMeasured: pIC50
# pIC50: negative log10 of molar concentration; output just the value

Summary for this compound, Cc1ccc2[nH]c(=O)c(C3=NN(C(=O)CCC(=O)O)C(c4ccc(Br)cc4)C3)c(-c3ccccc3)c2c1 (centres unmarked) [compound 1, reference compound] : pIC50 is 5.85

Summary for this compound, O=C(O)CC(F)(F)C(=O)N1N=C(c2c(-c3ccc(Cl)cc3)c3ccccc3[nH]c2=O)CC1c1ccc(Cl)cc1 (centres unmarked) [2i] : pIC50 is 6.64

###

For each entry below, report its remaining activity at 30 µM value.
Biological target: GluN1/GluN2A (Rattus norvegicus, UniProt P35439+Q00959)
Construct: expressed in transfected cells; host or cells: Xenopus laevis oocytes (cRNA injection)
Sequence (Q00959 23-1464, other chains not shown): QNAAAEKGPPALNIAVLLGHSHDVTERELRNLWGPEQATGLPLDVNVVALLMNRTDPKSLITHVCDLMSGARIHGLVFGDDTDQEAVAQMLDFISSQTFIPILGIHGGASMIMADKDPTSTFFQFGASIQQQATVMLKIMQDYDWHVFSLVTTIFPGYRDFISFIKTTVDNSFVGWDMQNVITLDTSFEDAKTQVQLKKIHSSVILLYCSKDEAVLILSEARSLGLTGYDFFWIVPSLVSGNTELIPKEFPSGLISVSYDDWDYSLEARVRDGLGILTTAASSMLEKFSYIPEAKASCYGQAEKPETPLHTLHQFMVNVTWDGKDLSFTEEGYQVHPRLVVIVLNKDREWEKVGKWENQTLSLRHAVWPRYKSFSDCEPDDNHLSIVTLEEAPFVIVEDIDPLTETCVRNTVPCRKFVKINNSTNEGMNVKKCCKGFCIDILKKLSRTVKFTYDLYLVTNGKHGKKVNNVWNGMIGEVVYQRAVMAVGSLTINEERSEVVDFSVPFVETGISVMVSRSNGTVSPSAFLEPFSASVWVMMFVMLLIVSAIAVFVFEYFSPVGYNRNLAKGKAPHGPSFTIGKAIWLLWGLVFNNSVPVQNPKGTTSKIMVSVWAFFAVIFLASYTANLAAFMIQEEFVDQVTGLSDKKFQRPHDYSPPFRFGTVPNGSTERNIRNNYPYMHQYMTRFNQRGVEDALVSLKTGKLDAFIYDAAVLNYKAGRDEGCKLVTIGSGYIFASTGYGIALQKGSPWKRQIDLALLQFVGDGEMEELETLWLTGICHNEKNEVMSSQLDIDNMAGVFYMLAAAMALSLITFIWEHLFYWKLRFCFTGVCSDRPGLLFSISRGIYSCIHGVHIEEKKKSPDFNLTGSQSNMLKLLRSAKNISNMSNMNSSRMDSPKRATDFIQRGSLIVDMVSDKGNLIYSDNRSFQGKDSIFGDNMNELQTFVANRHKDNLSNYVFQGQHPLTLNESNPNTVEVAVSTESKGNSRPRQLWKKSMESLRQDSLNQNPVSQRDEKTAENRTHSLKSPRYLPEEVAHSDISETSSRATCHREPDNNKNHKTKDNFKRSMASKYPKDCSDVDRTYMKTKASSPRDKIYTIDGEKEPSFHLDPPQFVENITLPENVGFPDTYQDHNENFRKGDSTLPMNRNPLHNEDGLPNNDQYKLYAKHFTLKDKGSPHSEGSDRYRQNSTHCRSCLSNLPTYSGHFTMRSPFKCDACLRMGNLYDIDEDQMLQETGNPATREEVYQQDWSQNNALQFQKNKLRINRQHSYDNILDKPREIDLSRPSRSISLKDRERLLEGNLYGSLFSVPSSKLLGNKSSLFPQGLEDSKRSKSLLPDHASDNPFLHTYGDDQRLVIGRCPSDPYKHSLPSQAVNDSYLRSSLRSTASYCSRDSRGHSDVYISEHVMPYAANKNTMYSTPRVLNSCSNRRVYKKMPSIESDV
Assay: Two-electrode voltage-clamp recordings, Xenopus laevis oocytes, GluN1/GluN2A
Format: cell-based
Details: 30 μM test compound; 100 μM glutamate, 30 μM glycine; mean ± SEM; read-out: I 30 μM / I control GluN2A
A number alone suffices; assume %.

Summary for this compound, O=C(CC(F)(F)C(=O)N1N=C(c2c(-c3ccc(Cl)cc3)c3ccccc3[nH]c2=O)CC1c1ccc(Cl)cc1)OCc1ccccc1 (centres unmarked) : remaining activity at 30 µM is 105

Summary for this compound, CCOC(=O)CC(F)(F)C(=O)N1N=C(c2c(-c3ccc(Cl)cc3)c3ccccc3[nH]c2=O)CC1c1ccc(Cl)cc1 (centres unmarked) : remaining activity at 30 µM is 100

Summary for this compound, N[C@@H](CCC(=O)N1N=C(c2c(-c3ccc(Cl)cc3)c3ccccc3[nH]c2=O)CC1c1ccc(Cl)cc1)C(=O)O (some centres unmarked) : remaining activity at 30 µM is 36

Summary for this compound, O=C(CCc1nnn[nH]1)N1N=C(c2c(-c3ccc(Cl)cc3)c3ccccc3[nH]c2=O)CC1c1ccc(Cl)cc1 (centres unmarked) : remaining activity at 30 µM is 29

Summary for this compound, O=C(CC(F)(F)C(=O)N1N=C(c2c(-c3ccc(Cl)cc3)c3ccccc3[nH]c2=O)CC1c1ccc(Cl)cc1)OCC1CC1 (centres unmarked) : remaining activity at 30 µM is 100

Summary for this compound, CC(C)OC(=O)CC(F)(F)C(=O)N1N=C(c2c(-c3ccc(Cl)cc3)c3ccccc3[nH]c2=O)CC1c1ccc(Cl)cc1 (centres unmarked) : remaining activity at 30 µM is 97

Summary for this compound, N#CCCC(=O)N1N=C(c2c(-c3ccc(Cl)cc3)c3ccccc3[nH]c2=O)CC1c1ccc(Cl)cc1 (centres unmarked) : remaining activity at 30 µM is 94

Summary for this compound, O=C(N1N=C(c2c(-c3ccc(Cl)cc3)c3ccccc3[nH]c2=O)CC1c1ccc(Cl)cc1)C(F)(F)F (centres unmarked) : remaining activity at 30 µM is 96
